# credit: PubChem BioAssay

test: small-molecule microarray binders of probe aWnt5a, primary screen, biochemical, biotinylated probe, 635/667 nm fluorescence (AID 1113); settings: higher = more signal;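 also: score merges 667 nm fluorescence intensity with signal-to-noise per printed feature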
Experimental endpoint: composite z-score
In your answer, state the number alone without any accompanying words.

Compound: COc1ccc(C#Cc2ccc3c(c2)[C@]2(C(=O)N3)[C@H](C(=O)N3CCCCCCC3)[C@H]3C(=O)O[C@H](c4ccccc4)[C@H](c4ccccc4)N3[C@@H]2c2ccc(O)cc2)cc1
Numeric readout: 0.19

Compound: COc1cc(C(O)C2C=CC3C(=O)N(Cc4ccccc4)C(=O)C3N2n2cnnc2)cc(OC)c1OC (centres undefined)
Numeric readout: 0.0751

Compound: CCOC(=O)C=Cc1ccccc1O
Numeric readout: -0.0462

Lookup: Specify composite z-score for "CN(C)C(=O)[C@]1(CCS(=O)(=O)c2ccccc2)N=C(c2ccc(OCCCO)cc2)O[C@@H]1c1ccccc1" and stop.
Found: -0.034

Lookup: Specify composite z-score for "[N-]=[N+]=Nc1ccccc1C[C@]1(C(=O)NCc2ccccc2)COC(c2ccc(OCCCO)cc2)=N1" and stop.
Found: 0.0004

Lookup: Specify composite z-score for "CC(C)C(=C=CC[C@@H](O)c1cccc(OCCO)c1)C[C@@H](O)c1ccccn1" and stop.
Found: -0.152

Lookup: Specify composite z-score for "COc1ccc([Si](C)(C)[C@H]2[C@H](CC(=O)N3CCC[C@H]3CO)O[C@@]3(C(=O)N(Cc4ccc(N5CCC5=O)cc4)c4ccccc43)[C@@H]2C)cc1" and stop.
Found: -0.0735

Lookup: Specify composite z-score for CC(C)[C@H]1NC(=O)[C@@]23C(=O)N[C@@H](Cc4ccccc4)C2[C@H](C)[C@@]2(C)O[C@H]2C3/C=C/CCC/C=C/CNC(=O)[C@H](Cc2ccccc2)NC1=O (some centres undefined) and stop.
Found: -0.148

Lookup: Specify composite z-score for O=C1C2C=CC(C(O)c3ccco3)N(Nc3ccccc3)C2C(=O)N1c1ccccc1 (centres undefined) and stop.
Found: -0.006

Lookup: Specify composite z-score for "C=C(COC)/C(=C/C[C@@H](OC(C)=O)c1ccc(CO)o1)c1cc(C(=O)OC)ccc1OC" and stop.
Found: -0.096

Lookup: Specify composite z-score for "O=c1cccc(-c2ccc(F)cc2)o1" and stop.
Found: -0.1

Lookup: Specify composite z-score for C=CCC(OC(C)=O)[C@@H]1[C@@H](N(Cc2ccc(-c3cccc(C(F)(F)F)c3)o2)C(=O)c2ccc(C)cc2)c2cc(OCCCO)ccc2N1C(=O)Cc1ccc(OC)cc1 (some centres undefined) and stop.
Found: 0.0327
